Some compounds, each annotated with its measured pIC50.
- experimental.system: hROMK (hKir1.1) (Homo sapiens, UniProt P48048)
- Sequence (P48048 1-391): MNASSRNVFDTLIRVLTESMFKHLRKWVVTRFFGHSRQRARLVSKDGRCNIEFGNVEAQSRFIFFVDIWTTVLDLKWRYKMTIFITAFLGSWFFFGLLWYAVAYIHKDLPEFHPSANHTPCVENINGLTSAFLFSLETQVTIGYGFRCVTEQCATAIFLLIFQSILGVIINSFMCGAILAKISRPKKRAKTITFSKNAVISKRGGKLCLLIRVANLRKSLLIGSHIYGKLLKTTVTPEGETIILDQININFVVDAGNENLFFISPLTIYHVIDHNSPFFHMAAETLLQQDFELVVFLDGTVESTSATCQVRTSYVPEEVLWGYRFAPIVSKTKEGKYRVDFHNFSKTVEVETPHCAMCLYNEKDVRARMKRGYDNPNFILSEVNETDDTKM
- assay.details: Thallium Flux Assay (ROMK channel functional thallium flux assay, FLIPR-Tetra)
- details: HEK293 cells stably expressing hROMK (hKir1.1); FluxOR thallium flux, 30 min compound incubation; concentration inhibiting 50% of ROMK thallium flux signal
Just the number, please; pIC50 means minus log10 of the concentration in mol/L.

The following compounds have reported results that may help.
> print(dat)
                                   compound  measured.result
1  Cc1c([C@@H](O)CN2CCC3(CC2)CCN(c2snc4ccncc24)C3=O)ccc2c1COC2=O [Example 85]             7.73
2  Cc1c([C@@H](O)CN2CCC3(CC2)CCN(c2nccn4ccnc24)C3)ccc2c1COC2=O [Example 91]             6.16
3  Cc1cc(C#N)c(F)cc1C(O)CN1CCC2(CC1)CCN(c1ccc3nncn3n1)C2 (racemic) [Example 55]             7.59

Q. Field request: pIC50 | item: Cc1nc(C(O)CN2CCC3(CCN(c4ccc5nncn5n4)CC3)C2)ccc1C#N (stereo not shown) [Example 68]
A. 7.07
